This collection of values is drawn from paper PMC9814779.

Target: human PPARδ ligand-binding domain (Gal4 chimera) (Homo sapiens, UniProt Q03181)
Construct: coding for the hinge region and LBD of the canonical isoform of the respective nuclear receptor; expressed in transfected cells; host or cells: HEK293T
Sequence (Q03181 211-439 limits assumed): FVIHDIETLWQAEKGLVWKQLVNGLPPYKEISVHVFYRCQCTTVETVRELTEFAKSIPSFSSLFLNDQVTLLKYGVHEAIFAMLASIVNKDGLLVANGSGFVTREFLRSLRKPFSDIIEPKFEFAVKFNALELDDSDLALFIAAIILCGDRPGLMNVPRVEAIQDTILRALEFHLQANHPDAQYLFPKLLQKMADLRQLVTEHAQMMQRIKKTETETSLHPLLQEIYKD
Experiment: Gal4 hybrid reporter gene assay, PPARδ
Format: cell-based
Design: dose or concentration left out as unconfirmed
Conditions: read-out: max. rel. act. PPARδ
Would you kindly list Emax for each of these compounds?
One number for each entry, in %.

O=C(O)CCc1cccc(NC(=O)c2ccccc2NC(=O)c2ccc(-c3ccco3)cc2)c1	43
O=C(O)COc1cccc(NC(=O)c2ccccc2NC(=O)c2ccc3ccccc3c2)c1	43

[in] Fill in the blank: the reported Emax of `O=C(O)CNc1cccc(NC(=O)c2ccccc2NC(=O)c2ccc3ccccc3c2)c1` is ____.
[out] 83

###

biological target: human FXR:retinoid X receptor (RXR) heterodimer (Homo sapiens, UniProt Q96RI1); construct: pcDNA3-hFXR[32] and pSG5-hRXR[33] served for receptor overexpression in the full-length FXR assay; expressed in transfected cells; host or cells: HeLa; test: Full-length FXR reporter gene assay (BSEP response element) in HeLa cells; assay type: cell-based
Sequence (P19793 whole entry): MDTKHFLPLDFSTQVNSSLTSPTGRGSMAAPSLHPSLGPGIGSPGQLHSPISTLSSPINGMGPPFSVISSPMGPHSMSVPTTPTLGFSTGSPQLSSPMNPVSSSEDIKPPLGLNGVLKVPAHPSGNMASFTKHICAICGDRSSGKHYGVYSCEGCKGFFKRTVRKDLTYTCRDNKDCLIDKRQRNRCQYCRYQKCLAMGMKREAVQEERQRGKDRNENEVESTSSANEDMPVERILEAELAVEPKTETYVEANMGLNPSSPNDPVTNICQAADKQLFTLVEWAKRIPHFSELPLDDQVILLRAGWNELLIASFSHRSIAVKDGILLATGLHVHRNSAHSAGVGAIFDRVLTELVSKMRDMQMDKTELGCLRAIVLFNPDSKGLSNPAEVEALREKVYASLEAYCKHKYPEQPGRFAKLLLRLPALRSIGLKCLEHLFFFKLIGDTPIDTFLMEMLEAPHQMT
Sequence (Q96RI1 whole entry): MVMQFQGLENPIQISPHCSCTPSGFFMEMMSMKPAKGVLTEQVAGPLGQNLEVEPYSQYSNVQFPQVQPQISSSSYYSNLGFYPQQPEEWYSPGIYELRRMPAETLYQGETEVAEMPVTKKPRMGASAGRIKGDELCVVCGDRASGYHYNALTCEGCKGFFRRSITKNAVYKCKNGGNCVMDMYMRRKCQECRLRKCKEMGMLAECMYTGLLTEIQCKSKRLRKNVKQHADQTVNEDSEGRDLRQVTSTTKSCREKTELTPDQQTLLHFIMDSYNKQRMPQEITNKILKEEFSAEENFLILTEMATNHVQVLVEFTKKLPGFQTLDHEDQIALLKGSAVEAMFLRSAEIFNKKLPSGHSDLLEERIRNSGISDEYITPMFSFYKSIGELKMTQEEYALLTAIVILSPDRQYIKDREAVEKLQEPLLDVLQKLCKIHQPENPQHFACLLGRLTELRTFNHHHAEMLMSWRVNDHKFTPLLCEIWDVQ
measured quantity: EC50 (nM)
One number for each entry, in nM.

[in] Fill in the blank: the reported EC50 of O=C(O)CCc1cccc(NC(=O)c2ccc(OC(F)(F)F)cc2NC(=O)c2ccc3ccccc3c2)c1 [compound 23] is ____.
[out] 1100

###

Target: human PPARδ ligand-binding domain (Gal4 chimera) (Homo sapiens, UniProt Q03181)
Construct: coding for the hinge region and LBD of the canonical isoform of the respective nuclear receptor; expressed in transfected cells; host or cells: HEK293T
Sequence (Q03181 211-439 limits assumed): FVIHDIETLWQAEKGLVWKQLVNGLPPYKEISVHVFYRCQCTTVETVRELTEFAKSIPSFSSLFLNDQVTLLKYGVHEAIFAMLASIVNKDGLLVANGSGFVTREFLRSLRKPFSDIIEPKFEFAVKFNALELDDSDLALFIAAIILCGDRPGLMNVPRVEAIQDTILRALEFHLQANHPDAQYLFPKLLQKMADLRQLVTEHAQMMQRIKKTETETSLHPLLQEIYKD
Test: Gal4 hybrid reporter gene assay, PPARδ
Format: cell-based
Details: EC50 [μM] PPARδ, HEK293T; mean ± SEM, n = 3
Would you kindly list EC50 for each of these compounds?
One number for each entry, in µM.

O=C(O)COc1cccc(NC(=O)c2ccccc2NC(=O)c2ccc3ccccc3c2)c1 [compound 13]	10
O=C(O)Cc1cccc(NC(=O)c2ccccc2NC(=O)c2ccc3ccccc3c2)c1 [compound 5]	4.9

Quick request: EC50 for each listed item, please.
1. O=C(O)CCc1cccc(NC(=O)c2cc3c(cc2NC(=O)c2ccc4ccccc4c2)OCO3)c1 [compound 29]
2. O=C(O)CCc1cccc(NC(=O)c2ccccc2NC(=O)c2ccc(-c3ccon3)cc2)c1 [compound 35]

[out]
0.4
5.6

###

molecular target: human FXR:retinoid X receptor (RXR) heterodimer (Homo sapiens, UniProt Q96RI1); construct: pcDNA3-hFXR[32] and pSG5-hRXR[33] served for receptor overexpression in the full-length FXR assay; expressed in transfected cells; host or cells: HeLa; experiment: Full-length FXR reporter gene assay (BSEP response element) in HeLa cells; assay type: cell-based; details: HeLa; mean ± SEM, n = 3; read-out: EC50 [μM] FXR
Would you kindly list EC50 for each of these compounds?
Answers are plain numbers, in µM.

Known EC50 results, listed for orientation:
O=C(O)CCc1cccc(NC(=O)c2ccccc2NC(=O)c2ccc(-c3cnco3)cc2)c1	15
O=C(O)CCc1cccc(NC(=O)c2ccccc2NC(=O)c2ccc3ccccc3c2)c1	2.6
O=C(O)CCc1ccc(NC(=O)c2ccccc2NC(=O)c2ccc3ccccc3c2)cc1	2.1
O=C(O)Cc1ccccc1NC(=O)c1ccccc1NC(=O)c1ccc2ccccc2c1	9.2
Cc1ccc(C(=O)Nc2cccc(CCC(=O)O)c2)c(NC(=O)c2ccc3ccccc3c2)c1	1.5

Quick request: EC50 for each listed item, please.
1. O=C(O)CCc1cccc(NC(=O)c2ccccc2NC(=O)c2ccc(-c3ccsc3)cc2)c1
2. COc1ccc(C(=O)Nc2cccc(CCC(=O)O)c2)c(NC(=O)c2ccc3ccccc3c2)c1
3. O=C(O)CCc1cccc(NC(=O)c2cc3c(cc2NC(=O)c2ccc4ccccc4c2)OCO3)c1
4. CC(C)(C)c1ccc(C(=O)Nc2cccc(CCC(=O)O)c2)c(NC(=O)c2ccc(-c3ccco3)cc2)c1

[out]
[0.6, 11, 2.9, 0.015]

###

target: human PPARγ ligand-binding domain (Gal4 chimera) (Homo sapiens, UniProt P37231); construct: coding for the hinge region and LBD of the canonical isoform of the respective nuclear receptor; expressed in transfected cells; host or cells: HEK293T; experiment: Gal4 hybrid reporter gene assay, PPARγ; type: cell-based; parameters: dose or concentration left out as unconfirmed; details: read-out: PPAR max. rel. act.
Sequence (P37231 238-503 limits assumed, change not shown): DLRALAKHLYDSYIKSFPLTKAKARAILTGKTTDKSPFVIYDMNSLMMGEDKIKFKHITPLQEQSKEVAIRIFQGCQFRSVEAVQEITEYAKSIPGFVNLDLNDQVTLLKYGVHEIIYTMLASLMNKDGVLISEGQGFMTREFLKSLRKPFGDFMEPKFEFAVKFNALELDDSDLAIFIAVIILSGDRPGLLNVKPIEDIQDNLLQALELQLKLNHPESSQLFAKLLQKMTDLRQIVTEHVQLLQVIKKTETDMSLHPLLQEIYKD
measured quantity: Emax (%)
One number for each entry, in %.

O=C(O)CCc1cccc(NC(=O)c2ccccc2NC(=O)C2=Cc3cccc(O)c3OC2)c1	6.3
Cc1ccc2c(c1)C=C(C(=O)Nc1ccccc1C(=O)Nc1cccc(CCC(=O)O)c1)CO2	36

Quick request: Emax for each listed item, please.
1. Cc1cccc2c1OCC(C(=O)Nc1ccccc1C(=O)Nc1cccc(CCC(=O)O)c1)=C2
2. O=C(O)CCc1cccc(NC(=O)c2ccccc2NC(=O)C2=Cc3cc(Cl)ccc3OC2)c1
3. Cc1ccc2c(c1)OCC(C(=O)Nc1ccccc1C(=O)Nc1cccc(CCC(=O)O)c1)=C2
4. O=C(O)CCc1cccc(NC(=O)c2ccccc2NC(=O)C2=Cc3ccccc3OC2)c1
5. O=C(O)CCc1cccc(NC(=O)c2ccccc2NC(=O)C2=C(Cl)c3ccccc3OC2)c1

[out]
1: 9.3; 2: 5.1; 3: 7.9; 4: 6.6; 5: 9

###

target: human PPARδ ligand-binding domain (Gal4 chimera) (Homo sapiens); construct: coding for the hinge region and LBD of the canonical isoform of the respective nuclear receptor; expressed in transfected cells; host or cells: HEK293T; experiment: Gal4 hybrid reporter gene assay, PPARδ; assay type: cell-based; conditions: HEK293T; mean ± SEM, n = 3; read-out: EC50 [μM] PPARδ
measured quantity: EC50

COc1ccc(C(=O)Nc2cccc(NCC(=O)O)c2)c(NC(=O)c2ccc(-c3ccoc3)cc2)c1	1.6 µM
O=C(O)CCc1cccc(NC(=O)c2ccccc2NC(=O)c2ccc(-c3cnco3)cc2)c1	12 µM
O=C(O)CNc1cccc(NC(=O)c2ccccc2NC(=O)c2ccc3ccccc3c2)c1	3.5 µM
O=C(O)CCc1cccc(NC(=O)c2ccccc2NC(=O)c2ccc(-c3ccccc3)cc2)c1	2.5 µM
O=C(O)CCc1ccc(NC(=O)c2ccccc2NC(=O)c2ccc3ccccc3c2)cc1	> 30 µM

[in] Fill in the blank: the reported EC50 of `O=C(O)CCc1cccc(NC(=O)c2ccccc2NC(=O)c2ccc(-n3ccnn3)cc2)c1` is ____.
[out] > 10 µM

###

Would you kindly list Emax for each of these molecules?
target: human PPARδ ligand-binding domain (Gal4 chimera) (Homo sapiens, UniProt Q03181); construct: coding for the hinge region and LBD of the canonical isoform of the respective nuclear receptor; expressed in transfected cells; host or cells: HEK293T; assay: Gal4 hybrid reporter gene assay, PPARδ; type: cell-based; parameters: dose or concentration left out as unconfirmed; conditions: read-out: max. rel. act. PPARδ
Numbers only, in %.

Known Emax results, listed for orientation:
O=C(O)CCc1cccc(NC(=O)c2cc(O)ccc2NC(=O)c2ccc3ccccc3c2)c1	24
O=C(O)CCc1cccc(NC(=O)c2ccccc2NC(=O)c2ccc(-c3ccsc3)cc2)c1	59

Quick request: Emax for each listed item, please.
1. O=C(O)CCc1cccc(NC(=O)c2cc(Cl)ccc2NC(=O)c2ccc3ccccc3c2)c1
2. O=C(O)CCc1cccc(NC(=O)c2ccc(Cl)cc2NC(=O)c2ccc3ccccc3c2)c1

[out]
17
16

###

target: human PPARγ ligand-binding domain (Gal4 chimera) (Homo sapiens, UniProt P37231); construct: coding for the hinge region and LBD of the canonical isoform of the respective nuclear receptor; expressed in transfected cells; host or cells: HEK293T; test: Gal4 hybrid reporter gene assay, PPARγ; assay type: cell-based; conditions: Supplementary Table 1, chromene derivatives; mean ± SEM, n ≥ 2; read-out: PPAR EC50
Threshold 5 µM: EC50 strictly smaller gives Met, otherwise Not met.

Here's what some known entries look like.
O=C(O)CCc1cccc(NC(=O)c2ccccc2NC(=O)C2=C(Cl)c3ccccc3OC2)c1	Met
O=C(O)CCc1cccc(NC(=O)c2ccccc2NC(=O)C2=Cc3cc(Cl)ccc3OC2)c1	Met
Cc1cccc2c1C=C(C(=O)Nc1ccccc1C(=O)Nc1cccc(CCC(=O)O)c1)CO2	Not met

Attention now shifts to the item below.
[in] Is EC50 strictly under 5 µM for the entry `COc1cccc2c1OCC(C(=O)Nc1ccccc1C(=O)Nc1cccc(CCC(=O)O)c1)=C2` ?
[out] Not met
